Reference source: PubChem BioAssay AID1963875

# System: KRAS-mutant PDC complex spheroid viability;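 further: viability read after seven days of compound exposure; 100% = DMSO vehicle-treated spheroids so lower means less viable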
# measurement_notes: Anticancer human tumor 186277-243-T-J2-PDC patient-derived colon adenocarcinoma cell line growth inhibition [KRAS2]
# assay_conditions: second compound 0.316 µM; first compound 0.01 µM; stronger effect = lower value
property_name: viability, T/C (%)
Reply numerically in %, unit not repeated.

These recorded examples may help you get a feel for the data.
[
  {
    "molecule": "CC(C)n1nc(-c2ccc3oc(N)nc3c2)c2c(N)ncnc21 + CC1OCC2(CCN(c3cnc(Sc4ccnc(N)c4Cl)c(N)n3)CC2)C1N",
    "property_name": "viability, T/C",
    "unit_info": "%",
    "observed_result": 57
  },
  {
    "molecule": "CC(=O)OC12COC1CC(O)C1(C)C(=O)C(O)C3=C(C)C(OC(=O)C(O)C(NC(=O)OC(C)(C)C)c4ccccc4)CC(O)(C(OC(=O)c4ccccc4)C21)C3(C)C (stereo not given) + C=CC(=O)N1CCN(c2nc(=O)n(-c3c(C)ccnc3C(C)C)c3nc(-c4c(O)cccc4F)c(F)cc23)C(C)C1",
    "property_name": "viability, T/C",
    "unit_info": "%",
    "observed_result": 6.24
  },
  {
    "molecule": "CC(=O)OC12COC1CC(O)C1(C)C(=O)C(O)C3=C(C)C(OC(=O)C(O)C(NC(=O)OC(C)(C)C)c4ccccc4)CC(O)(C(OC(=O)c4ccccc4)C21)C3(C)C (stereo not given) + COc1cc2nc(C)nc(NC(C)c3cc(N)cc(C(F)(F)F)c3)c2cc1OC1CCOC1",
    "property_name": "viability, T/C",
    "unit_info": "%",
    "observed_result": 4.29
  },
  {
    "molecule": "CCN1CCN(Cc2ccc(Nc3ncc(F)c(-c4cc(F)c5nc(C)n(C(C)C)c5c4)n3)nc2)CC1 + C=CC(=O)N1CCN(c2nc(=O)n(-c3c(C)ccnc3C(C)C)c3nc(-c4c(O)cccc4F)c(F)cc23)C(C)C1",
    "property_name": "viability, T/C",
    "unit_info": "%",
    "observed_result": 101
  }
]

Next molecule, please.
Problem: Given the molecule CC(=O)OC12COC1CC(O)C1(C)C(=O)C(O)C3=C(C)C(OC(=O)C(O)C(NC(=O)OC(C)(C)C)c4ccccc4)CC(O)(C(OC(=O)c4ccccc4)C21)C3(C)C (stereo not given) + CNCc1ccccc1-c1csc(C(C)Nc2nc(C)nc3cc(OC)c(OC)cc23)c1 , what is its reported viability, T/C?
Result: 4.19
